// Vmax Quizalofop-P lookup, one value per entry
- assayProcedure: enzyme kinetic measurements with purified protein
- Format: biochemical
- testParameters: relative values

{"molecule": "MON-HT52: engineered oxygenase protein, amino acid sequence SEQ ID NO:4 (protein) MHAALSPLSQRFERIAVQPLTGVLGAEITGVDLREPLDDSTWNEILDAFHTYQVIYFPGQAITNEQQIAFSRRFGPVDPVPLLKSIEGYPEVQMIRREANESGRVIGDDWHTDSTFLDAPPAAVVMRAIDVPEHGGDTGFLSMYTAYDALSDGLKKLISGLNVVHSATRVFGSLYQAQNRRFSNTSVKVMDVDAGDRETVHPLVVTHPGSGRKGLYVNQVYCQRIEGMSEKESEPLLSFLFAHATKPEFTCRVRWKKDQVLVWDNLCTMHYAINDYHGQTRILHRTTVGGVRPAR", "Vmax Quizalofop-P": 39}
{"molecule": "MON-HT51: engineered oxygenase protein, amino acid sequence SEQ ID NO:1 (protein) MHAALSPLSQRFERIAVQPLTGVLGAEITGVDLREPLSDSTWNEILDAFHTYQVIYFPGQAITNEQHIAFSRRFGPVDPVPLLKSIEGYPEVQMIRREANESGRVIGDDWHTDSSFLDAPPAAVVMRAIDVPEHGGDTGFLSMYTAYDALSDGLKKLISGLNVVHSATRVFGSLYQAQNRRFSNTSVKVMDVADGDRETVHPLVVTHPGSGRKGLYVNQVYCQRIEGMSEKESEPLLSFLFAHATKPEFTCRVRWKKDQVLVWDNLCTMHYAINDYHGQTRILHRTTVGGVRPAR", "Vmax Quizalofop-P": 120}
{"molecule": "MON-HT53: engineered oxygenase protein, amino acid sequence SEQ ID NO:7 (protein) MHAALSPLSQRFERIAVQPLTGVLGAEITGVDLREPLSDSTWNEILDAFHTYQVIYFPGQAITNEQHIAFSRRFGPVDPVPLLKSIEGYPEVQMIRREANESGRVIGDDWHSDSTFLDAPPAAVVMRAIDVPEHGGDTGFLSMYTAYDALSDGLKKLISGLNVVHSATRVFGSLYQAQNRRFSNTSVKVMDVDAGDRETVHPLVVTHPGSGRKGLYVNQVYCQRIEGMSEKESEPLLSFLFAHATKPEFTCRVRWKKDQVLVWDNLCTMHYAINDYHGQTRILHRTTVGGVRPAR", "Vmax Quizalofop-P": 95}

The measurements presented in this section are drawn from patent US12723255B2.
